- assay_notes: Inhibition of 6-His tagged-G4SG4 fused ZIKV NS2B (49 to 95 residues) R95A mutant-NS3 (1 to 170 residue) R29G mutant expressed in Escherichia coli BL21 (DE3) using Bz-Nle-K-RR-AMC substrate preincubated for 10 mins followed by substrate addition and measured after 30 mins by fluorescence assay
- Parameters: species or system Zika virus
pIC50: −log10 of the molar value. Non-standard residues stand in square brackets, D forms with d. Residues, ends and D or L forms follow the SMILES beside them. *: point of attachment. AEF = NCCOc1ccc(C[C@H](N)C(=O)O)cc1; PhAc = O=C(Cc1ccccc1)*
This listing pairs molecules with measured pIC50.

- molecule: "N=C(N)NCCC[C@H](NC(=O)[C@H](CCCCN)NC(=O)[C@H](CCCCN)NC(=O)Cc1ccc(-c2ccccc2)cc1)C(N)=O"
  relation_qualifier: "="
  pIC50: 5.81
- molecule: "N=C(N)NCCC[C@H](NC(=O)[C@H](Cc1ccc(OCCN)cc1)NC(=O)[C@H](CCCCN)NC(=O)Cc1ccccc1)C(N)=O (PhAc-Lys-[AEF]-Arg-NH2)"
  relation_qualifier: "<"
  pIC50: 4.00
- molecule: "NCCCC[C@H](NC(=O)Cc1ccccc1)C(=O)N[C@@H](CCCCN)C(=O)N[C@H](C(=O)NCCc1ccccc1)c1ccc(OCc2ccc(C(F)(F)F)cc2)cc1"
  relation_qualifier: "="
  pIC50: 6.21
- molecule: "N=C(N)NCCC[C@H](NC(=O)[C@H](CCCCN)NC(=O)[C@H](Cc1cccc(CN)c1)NC(=O)Cc1ccccc1)C(N)=O"
  relation_qualifier: "="
  pIC50: 4.43
- molecule: "N=C(N)NCCC[C@H](NC(=O)c1cccs1)C(=O)N[C@@H](CCCCN)C(=O)N[C@H](C(N)=O)c1ccc(OCc2ccncc2)cc1"
  relation_qualifier: "="
  pIC50: 4.92
- molecule: "NCCCC[C@H](NC(=O)Cc1ccccc1)C(=O)N[C@@H](CCCCN)C(=O)N[C@H](C(=O)NCc1ccc(O)cc1)c1ccccc1"
  relation_qualifier: "="
  pIC50: 6.43

The measurements presented in this section are drawn from ChEMBL document CHEMBL5154725.
